What Pmel+ (sgRNA Log(2) fold change, Pmel-1 selection versus control T cells) was measured for each of the following?
Test system: B16F10-Cas9 cells co-cultured with Pmel-1 T cells
Assay: Genome-scale CRISPR-Cas9 screen, selection with Pmel-1 T cells
Assay type: cell-based, mouse
Settings: Table 3; B16F10-Cas9 cells pre-treated with IFNγ, co-cultured with Pmel-1 T cells 1:1 for three days; negative = depleted, positive = enriched

Reference set, count: 10
sequence_data="CCTTCAATAACGTTAAACAG (chemistry not fully specified)" result_value=-0.26
sequence_data="CCGAGACCCCAATAGTGCAA (chemistry not fully specified)" result_value=2.89
sequence_data="CGACGCAAGTGGGAGCAGAG (chemistry not fully specified)" result_value=3.91
sequence_data="TTACTGAGGCTCGATTGGGA (chemistry not fully specified)" result_value=0.41
sequence_data="CAATAATGCTGGTCTACGTG (chemistry not fully specified)" result_value=2.58
sequence_data="TGATGCTGGCCTCTATACTG (chemistry not fully specified)" result_value=-1.90
sequence_data="GCGTCGTCGACTTATGACTT (chemistry not fully specified)" result_value=-0.05
sequence_data="TATACCAATACGCAAATACC (chemistry not fully specified)" result_value=4.34
sequence_data="GTCTCTAGCAAAGTCCACGC (chemistry not fully specified)" result_value=3.25
sequence_data="CCCACGAATTCGTCACAGGG (chemistry not fully specified)" result_value=2.63

Record Pmel+ (sgRNA Log(2) fold change, Pmel-1 selection versus control T cells) per entry; entries follow.
1. GAATTGCAACGCCCACACCG (chemistry not fully specified)
2. CATGAGGTAGAATAGTTCGT (chemistry not fully specified)
3. AGATTGTCAACAATGGAACT (chemistry not fully specified)
4. ACATTGATACGCACACTCAC (chemistry not fully specified)
5. CTGTTACCTTCATAGATAAG (chemistry not fully specified)
6. TATGGAGCGGTGTATGCCCG (chemistry not fully specified)

[0.39, 2.15, 0.00, 1.41, 0.00, 1.27]

// for each sequence in input: emit Pmel+ (sgRNA Log(2) fold change, Pmel-1 selection versus control T cells)
1. TTATTGAGTCAAGAAAAGGT (chemistry not fully specified)
2. AAGTCCTAGATAAAGCACAT (chemistry not fully specified)

[-1.87, 3.43]

Please state Pmel+ (sgRNA Log(2) fold change, Pmel-1 selection versus control T cells) for every sequence in the list that follows.
1. GCTGGGGAACTCAATTATAG (chemistry not fully specified)
2. TGATGAGCAGATTCTAACTT (chemistry not fully specified)

[2.03, 5.03]

---

System: B16F10-Cas9 cells co-cultured with Pmel-1 T cells
Test: Genome-scale CRISPR-Cas9 screen, selection with Pmel-1 T cells
Assay type: cell-based, mouse
Conditions: Table 3; B16F10-Cas9 cells pre-treated with IFNγ, co-cultured with Pmel-1 T cells 1:1 for three days; negative = depleted, positive = enriched
Decide by Pmel+ (sgRNA Log(2) fold change, Pmel-1 selection versus control T cells): equal to or exceeding -0.3 means 1 (yes), less means 0 (no).

Example entries and their recorded answers appear below.
sequence_data="CACACCCTTACTGCCCGTCG (chemistry not fully specified)" assigned_class="0 (no)"
sequence_data="AGTTGGATCGCGAATAAAGA (chemistry not fully specified)" assigned_class="0 (no)"
sequence_data="TTCGGACAAATACGACGACG (chemistry not fully specified)" assigned_class="1 (yes)"

Hello, I need to know if GTAGACAACAACATTCGCAG (chemistry not fully specified) has measured Pmel+ (sgRNA Log(2) fold change, Pmel-1 selection versus control T cells) not below -0.3. Thanks! 1 (yes)

Please indicate if the recorded Pmel+ (sgRNA Log(2) fold change, Pmel-1 selection versus control T cells) for GAAGTAAAGGGATTTAACAG (chemistry not fully specified) meets or exceeds -0.3. 0 (no)

Please indicate if the recorded Pmel+ (sgRNA Log(2) fold change, Pmel-1 selection versus control T cells) for AAAAATTCAACGTTGAAACA (chemistry not fully specified) meets or exceeds -0.3. 0 (no)

# check: Pmel+ (sgRNA Log(2) fold change, Pmel-1 selection versus control T cells) of AAACATATAGTGTACCTCTA (chemistry not fully specified) is greater than or equal to -0.3 1 (yes)

Say whether CAGTGTCACAACCCACCGGA (chemistry not fully specified) shows Pmel+ (sgRNA Log(2) fold change, Pmel-1 selection versus control T cells) of -0.3 or more. 1 (yes)

Does the sequence AAGGGCCACTTACAATTAGG (chemistry not fully specified) have recorded Pmel+ (sgRNA Log(2) fold change, Pmel-1 selection versus control T cells) that is -0.3 or more? 1 (yes)

---

Tested on: B16F10-Cas9 cells pulsed with SIINFEKL peptide, co-cultured with OT-I T cells
Assay: Genome-scale CRISPR-Cas9 screen, selection with OT-I T cells
Assay type: cell-based, mouse
Conditions: Table 3; B16F10-Cas9 cells pulsed with SIINFEKL, co-cultured with OT-I T cells 1:1 for one day; negative = depleted, positive = enriched
Recorded Metric: OT1 (sgRNA Log(2) fold change, OT-I selection versus control T cells)
One number for each entry.

// below: answered sequences
sequence_data="TGTAATGTAGGTCTCCCAGG (chemistry not fully specified)" result_value=-3.77
sequence_data="ATGCAGATAATCCGCCAAAG (chemistry not fully specified)" result_value=-2.49
sequence_data="GCTGTGGGGACTGCTAAAAG (chemistry not fully specified)" result_value=-1.12

Working through the 4 sequences below one at a time, give OT1 (sgRNA Log(2) fold change, OT-I selection versus control T cells) for each.
1. CTGAGCATGTCTAACACGAG (chemistry not fully specified)
2. GAATCTGAATGGAGGAACCT (chemistry not fully specified)
3. TTATTGAGTCAAGAAAAGGT (chemistry not fully specified)
4. GCAGGGGTCTCCTTATGTCG (chemistry not fully specified)

1: -2.99; 2: -2.21; 3: -3.67; 4: -2.67

Can you give me OT1 (sgRNA Log(2) fold change, OT-I selection versus control T cells) for all of these, one by one?
1. GCTCGATGGATAGCATTCAC (chemistry not fully specified)
2. GAATACGAAGCAGAAAAGGT (chemistry not fully specified)
3. GGATCCTGGCGATTCAACAT (chemistry not fully specified)

-3.98
-2.50
-3.11

---

Tested on: B16F10-Cas9 cells pulsed with SIINFEKL peptide, co-cultured with OT-I T cells
Test: Genome-scale CRISPR-Cas9 screen, selection with OT-I T cells
Type: cell-based, mouse
Conditions: Table 3; B16F10-Cas9 cells pulsed with SIINFEKL, co-cultured with OT-I T cells 1:1 for one day; negative = depleted, positive = enriched
Lab note: cut-off is -3. Strictly less in OT1 (sgRNA Log(2) fold change, OT-I selection versus control T cells) is Yes. Exactly -3 or more is No.

sequence_data="GGTCATACTTAAAAGCACAA (chemistry not fully specified)" assigned_class=No

Lab note: next sequence to report on.
Please let me know if TGTTTGCAGTTAGCAAAACG (chemistry not fully specified) shows OT1 (sgRNA Log(2) fold change, OT-I selection versus control T cells) below -3. No

---

Test system: B16F10-Cas9 cells co-cultured with Pmel-1 T cells
Assay: Genome-scale CRISPR-Cas9 screen, selection with Pmel-1 T cells
Type: cell-based, mouse
Settings: Table 3; B16F10-Cas9 cells pre-treated with IFNγ, co-cultured with Pmel-1 T cells 1:1 for three days; negative = depleted, positive = enriched
Recorded Metric: Pmel+ (sgRNA Log(2) fold change, Pmel-1 selection versus control T cells)
Answers are plain numbers.

A selection of reference data follows.
sequence_data="ATAGAAATCTGACACTGCCG (chemistry not fully specified)" target_system="B16F10-Cas9 cells co-cultured with Pmel-1 T cells" result_value=0.00
sequence_data="CTCAGCTGGATACAACCAGG (chemistry not fully specified)" target_system="B16F10-Cas9 cells co-cultured with Pmel-1 T cells" result_value=0.00
sequence_data="TCCGAACCGAATCATCACTG (chemistry not fully specified)" target_system="B16F10-Cas9 cells co-cultured with Pmel-1 T cells" result_value=10.23
sequence_data="CAAAGTCTGCTGTCCGACCT (chemistry not fully specified)" target_system="B16F10-Cas9 cells co-cultured with Pmel-1 T cells" result_value=2.57

Please give the measured Pmel+ (sgRNA Log(2) fold change, Pmel-1 selection versus control T cells) for this sequence: AGTTTGGAGCCCAGTAGGCA (chemistry not fully specified) -2.19

---

System: B16F10-Cas9 cells pulsed with SIINFEKL peptide, co-cultured with OT-I T cells
Assay: Genome-scale CRISPR-Cas9 screen, selection with OT-I T cells
Type: cell-based, mouse
Details: Table 3; B16F10-Cas9 cells pulsed with SIINFEKL, co-cultured with OT-I T cells 1:1 for one day; negative = depleted, positive = enriched
Kindly supply the reported OT1 (sgRNA Log(2) fold change, OT-I selection versus control T cells) values for the records listed here.
One number for each entry.

Some sequences with recorded OT1 (sgRNA Log(2) fold change, OT-I selection versus control T cells):
sequence_data="GCTGTTACTCCAGAGACACA (chemistry not fully specified)" target_system="B16F10-Cas9 cells pulsed with SIINFEKL peptide, co-cultured with OT-I T cells" result_value=-0.23
sequence_data="GCGTCGTCGACTTATGACTT (chemistry not fully specified)" target_system="B16F10-Cas9 cells pulsed with SIINFEKL peptide, co-cultured with OT-I T cells" result_value=-3.36
sequence_data="CCATTGTATAACTGTCTGCG (chemistry not fully specified)" target_system="B16F10-Cas9 cells pulsed with SIINFEKL peptide, co-cultured with OT-I T cells" result_value=-3.02

Could you report OT1 (sgRNA Log(2) fold change, OT-I selection versus control T cells) for every entry in the following list?
1. ATGGGATTGATCGTTACTGG (chemistry not fully specified)
2. TTAGTTCTGGCAAAGCGCCG (chemistry not fully specified)
3. AGGGAACCTCACTTCCAAGT (chemistry not fully specified)

[-2.32, -2.23, 3.12]
